Recorded values, source patent US20250257060A1.

PROTOCOL_NOTES: Pharmacokinetic test in mice (IV and PO)
Type: in vivo, BALB/c mice
RUN_PARAMETERS: mice, PO 5 mg/kg
Description: In this example, the pharmacokinetic behavior of the compounds after intravenous injection (IV) and intragastric (PO) administration in BALB/c mice was tested. On the day of administration, mice were weighed for actual body weight and the administration volume was calculated. […] Plasma concentrations were determined by a LC-MS/MS method. […] The relevant pharmacokinetic parameters were calculated by a linear logarithmic trapezoid method.
Label Y when t½z is strictly below 2 h; otherwise label N.

# count of solved cases: 4
In [3]: df
Out[3]:
                                   compound  class_name
0  CN(C)C(=O)N[C@@H]1CCCC[C@H]1N1Cc2ccc(-c3nnc(C(F)F)o3)cc2S1(=O)=O [Compound 93]           Y
1  O=C(N[C@@H]1COCC[C@H]1N1Cc2ccc(-c3nnc(C(F)F)o3)cc2S1(=O)=O)C(F)F [Compound 13]           Y
2  CC(F)(F)C(=O)N[C@@H]1CCCC(F)(F)[C@H]1N1Cc2ccc(-c3nnc(C(F)F)o3)cc2S1(=O)=O [Compound 10]           N
3  O=C(N[C@@H]1CCCC[C@H]1N1Cc2ccc(-c3nnc(C(F)F)o3)cc2S1(=O)=O)N1CCOCC1 [Compound 113]           Y

Lab log: compare recorded t½z with 2 h; is it strictly lower for Cn1cc([C@@H]([C@H](O)c2ccccc2)N2Cc3ccc(-c4nnc(C(F)F)o4)cc3S2(=O)=O)cn1 [Compound 80] ?
N

# strict comparison: is reported t½z < 2 h? input = O=C(N[C@@H]1CCOC[C@H]1N1Cc2ccc(-c3nnc(C(F)F)o3)cc2S1(=O)=O)C(F)F [Compound 14]
Y

Consider the compound O=S1(=O)c2cc(-c3nnc(C(F)F)o3)ccc2CN1[C@H](c1ccccn1)[C@H](O)c1ccc(F)cn1 [Compound 87] . Is its t½z strictly less than 2 h?
Y

====

PROTOCOL_NOTES: Phase I metabolic stability in mouse liver microsomes (MLMs)
Assay type: in vitro ADME, CD-1 mice
RUN_PARAMETERS: MLM, with NADPH, 60 min
VALUE_TYPE: Remaining rate (T = 60 min)
# number then unit; no other words

Reference set, count: 3
>>> df
                                   molecule  assay_value
0  O=C(N[C@@H]1CCCC[C@H]1N1Cc2ccc(-c3nnc(C(F)F)o3)cc2S1(=O)=O)C(F)F [Compound 2]        84.8%
1  O=C(N[C@H]1[C@H](N2Cc3ccc(-c4nnc(C(F)F)o4)cc3S2(=O)=O)CCCC1(F)F)C(F)F [Compound 61]       85.14%
2  O=S1(=O)c2cc(-c3nnc(C(F)F)o3)ccc2CN1C(c1ccccn1)[C@H](O)c1ccccn1 (stereo partly shown) [Compound 83]       72.27%

Please list Remaining rate (T = 60 min) recorded for the molecule CC(F)(F)C(=O)N[C@@H]1CCCC[C@H]1N1Cc2ccc(-c3nnc(C(F)F)o3)cc2S1(=O)=O [Compound 1]
79.8%

====

Documented EC50 across a set of compounds
Tested on: acetylation level of α-tubulin in A375 cells
PROTOCOL_NOTES: Assay on acetylation level of α-tubulin, A375 cells
Format: cell-based
RUN_PARAMETERS: Homo sapiens, A-375, 6 h
Value and unit, in that order.

                                   compound  assay_value
0  CC(F)(F)C(=O)N[C@@H]1CCCC[C@H]1N1Cc2ccc(-c3nnc(C(F)F)o3)cc2S1(=O)=O       393 nM

Consider now this further compound.
Give EC50 for `O=C(N[C@@H]1CCCC[C@H]1N1Cc2ccc(-c3nnc(C(F)F)o3)cc2S1(=O)=O)C(F)F`
202 nM

====

PROTOCOL_NOTES: Phase I metabolic stability in dog liver microsomes (DLMs)
Format: in vitro ADME, beagle dogs
Set-up: dose or concentration left out as unconfirmed
RUN_PARAMETERS: beagle, dog, liver microsomes, pH 7.4; DLM
VALUE_TYPE: half-life

>>> print(df.to_string())
                                   compound  assay_value
0  CC(F)(F)C(=O)N[C@@H]1CCCC[C@H]1N1Cc2ccc(-c3nnc(C(F)F)o3)cc2S1(=O)=O     > 2.42 h

Let's switch to this compound now.
For `O=C(N[C@@H]1CCCC[C@H]1N1Cc2ccc(-c3nnc(C(F)F)o3)cc2S1(=O)=O)C(F)F` , write its half-life.
> 2.42 h

====

PROTOCOL_NOTES: Phase I metabolic stability in human liver microsomes (HLMs)
Format: in vitro ADME, humans
RUN_PARAMETERS: human, liver microsomes, pH 7.4; HLM
VALUE_TYPE: CLint scaled at 1 µM (mL/min/kg)
Kindly provide the numeric value in mL/min/kg only, without the unit symbol.

In [3]: df
Out[3]:
                                   compound  assay_value
0  O=C(N[C@H]1[C@H](N2Cc3ccc(-c4nnc(C(F)F)o4)cc3S2(=O)=O)CCCC1(F)F)C(F)F         7.26

Please look at this compound and report its CLint scaled at 1 µM: O=S1(=O)c2cc(-c3nnc(C(F)F)o3)ccc2CN1C(c1ccccn1)[C@H](O)c1ccccn1 (stereo partly shown)
6.43

====

Quick list: Vd per entry.
PROTOCOL_NOTES: Pharmacokinetic test in mice (IV and PO)
Assay type: in vivo, BALB/c mice
RUN_PARAMETERS: BALB/c, mouse, plasma; mice, IV 1 mg/kg; read-out: Vz
Entry rule: numbers only, all in L/kg.

>>> print(df.to_string())
                                   compound  measure_unit  assay_value
0  CN(C)C(=O)N[C@@H]1CCCC[C@H]1N1Cc2ccc(-c3nnc(C(F)F)o3)cc2S1(=O)=O          L/kg          1.9
1  O=C(N[C@@H]1COCC[C@H]1N1Cc2ccc(-c3nnc(C(F)F)o3)cc2S1(=O)=O)C(F)F          L/kg         1.05
2  O=C(N[C@@H]1CCOC[C@H]1N1Cc2ccc(-c3nnc(C(F)F)o3)cc2S1(=O)=O)C(F)F          L/kg        0.928
3  CC(F)(F)C(=O)N[C@@H]1CCCC(F)(F)[C@H]1N1Cc2ccc(-c3nnc(C(F)F)o3)cc2S1(=O)=O          L/kg          1.5
4  Cn1cc([C@@H]([C@H](O)c2ccccc2)N2Cc3ccc(-c4nnc(C(F)F)o4)cc3S2(=O)=O)cn1          L/kg            1

Quick one: give measured Vd for `O=S1(=O)c2cc(-c3nnc(C(F)F)o3)ccc2CN1[C@H](c1ccccn1)[C@H](O)c1ccc(F)cn1`
0.9

Assign Vd to the following record: `O=C(N[C@@H]1CCCC[C@H]1N1Cc2ccc(-c3nnc(C(F)F)o3)cc2S1(=O)=O)N1CCOCC1`
1.03

====

Measured Tmax accompanies every entry in the list below.
PROTOCOL_NOTES: Pharmacokinetic test in mice (IV and PO)
Type: in vivo, BALB/c mice
RUN_PARAMETERS: BALB/c, mouse, plasma; mice, PO 10 mg/kg
Give your result in min as a bare value.

Would you please look over these solved cases?
>>> print(df.to_string())
                                   molecule  measure_unit  assay_value
0  O=S1(=O)c2cc(-c3nnc(C(F)F)o3)ccc2CN1C(c1ccccn1)[C@H](O)c1ccccn1 (stereo partly shown) [Compound 83]           min           30
1  O=C(N[C@@H]1CCCC[C@H]1N1Cc2ccc(-c3nnc(C(F)F)o3)cc2S1(=O)=O)C(F)F [Compound 2]           min           30
2  O=C(N[C@H]1[C@H](N2Cc3ccc(-c4nnc(C(F)F)o4)cc3S2(=O)=O)CCCC1(F)F)C(F)F [Compound 61]           min           60

The record that follows has no Tmax shown yet.
Given CC(F)(F)C(=O)N[C@@H]1CCCC[C@H]1N1Cc2ccc(-c3nnc(C(F)F)o3)cc2S1(=O)=O [Compound 1] , respond with its Tmax.
60

====

Catalogue of Cmax readings, one per entry.
PROTOCOL_NOTES: Pharmacokinetic test in mice (IV and PO)
Format: in vivo, BALB/c mice
RUN_PARAMETERS: BALB/c, mouse, plasma; mice, IV 2 mg/kg (C0)
# value in µM; strip the unit string

In [3]: df
Out[3]:
                                   molecule  value_type  assay_value
0  O=C(N[C@H]1[C@H](N2Cc3ccc(-c4nnc(C(F)F)o4)cc3S2(=O)=O)CCCC1(F)F)C(F)F        Cmax         4.52
1  O=S1(=O)c2cc(-c3nnc(C(F)F)o3)ccc2CN1C(c1ccccn1)[C@H](O)c1ccccn1 (stereo partly shown)        Cmax         5.27
2  CC(F)(F)C(=O)N[C@@H]1CCCC[C@H]1N1Cc2ccc(-c3nnc(C(F)F)o3)cc2S1(=O)=O        Cmax         4.52

Input `O=C(N[C@@H]1CCCC[C@H]1N1Cc2ccc(-c3nnc(C(F)F)o3)cc2S1(=O)=O)C(F)F` , output reported Cmax.
6.75
